- Test system: SNB-19 CNS
- assay.overview: NCI tumour cell line growth inhibition, 48 h
experimental.endpoint: GI50

Known results for compounds:
# compound, system, assay.value
records = [
    ("COc1cc(Nc2nc(N[C@H]3CCCC[C@@H]3N)nc3cc[nH]c(=O)c23)cc(OC)c1", "SNB-19 CNS", "3.01 µM"),
    ("C=C1C(=O)O[C@H]2[C@H]1CC/C(COC(=O)N1CCC[C@H]1C(=O)Nc1ccc(OC)c(C(N)=O)c1O)=C\\CC[C@@]1(C)O[C@@H]21", "SNB-19 CNS", "7.62 µM"),
    ("O=C(CCl)N1c2ccccc2Sc2c1ccc1ccccc21", "SNB-19 CNS", "4.37 µM"),
]

Fill in: GI50 of CC(=O)O[C@@H]1CC2C(C)(C)CCCC2(C)C2=C1C(=O)C(C(C)C)=CC2=O (stereo not given in full) is ___
0.87 µM

Fill in: GI50 of "c1cnc2[nH]cc(-c3csc(-c4cn(CCCCN5CCOCC5)c5ccccc45)n3)c2c1" is ___
1.76 µM

====

- System: MDA-MB-435
- assay.overview: NCI tumour cell line growth inhibition, 48 h
# label = t if TGI >= 30 µM else f

# compound, assigned.label
records = [
    ("COCCOCCOC1=C(Cl)C(=O)c2c(O)ccc(O)c2C1=O", "f"),
    ("c1cnc2[nH]cc(-c3csc(-c4cn(CCCCN5CCOCC5)c5ccccc45)n3)c2c1", "f"),
    ("Cn1c(-c2cccs2)cc(-c2cccs2)c1-c1ccsc1", "t"),
    ("CCCCN(Cc1ccc(F)cc1)c1ccc(CO)c(Cl)c1", "t"),
    ("O[C@@H]1C[C@@H]2N[C@@](O)(C[C@@H]2O)[C@H]1O", "t"),
    ("CC12Cc3cc4c(cc3C1(c1ccc([N+](=O)[O-])cc1)OCCO2)OCO4 (stereo not given)", "t"),
    ("COc1cc(Nc2nc(N[C@H]3CCCC[C@@H]3N)nc3cc[nH]c(=O)c23)cc(OC)c1", "f"),
    ("Cn1c(-c2ccc(/C=N\\N3CCN(/N=C/c4ccc(-c5c[n+]6ccccc6n5C)cc4)CC3)cc2)c[n+]2ccccc12", "t"),
    ("COc1cccc(NC(=O)CC(=O)N2N=C(C)C(N=Nc3ccc(S(=O)(=O)c4ccc(N=NC5C(=O)N(C(=O)CC(=O)Nc6cccc(OC)c6)N=C5C)cc4)cc3)C2=O)c1 (stereo not given)", "t"),
]

Turning to the following compound.
Form field: TGI at least 30 µM? Entry: "CCCCCCCCCCCCCC(=O)CBr"
t

====

- Test system: SW-620 colon
- assay.overview: NCI tumour cell line growth inhibition, 48 h
experimental.endpoint: TGI

Known results for molecules:
# molecule, TGI
rows = [
    ("Clc1nc(Cl)c2ncn(Cc3ccc(COc4cccc(OCc5ccc(Cn6cnc7c(Cl)nc(Cl)nc76)cc5)c4)cc3)c2n1", "> 100 µM"),
    ("COC(=O)C1C2C=CC(C2)N1[C@@H](C)c1ccccc1 (stereo not given in full)", "> 100 µM"),
    ("S=c1[nH]c(=S)c2cc(Sc3ccc4[nH]c(=S)[nH]c(=S)c4c3)ccc2[nH]1", "> 100 µM"),
]

Fill in: TGI of C=C1C(=O)OC2C1CC(O)/C(C)=C\CCC1(C)OC21 (stereo not given) is ___
> 100 µM

Fill in: TGI of "COC(=O)c1c(C)cccc1/C=C1\Cc2cc(C)cc(C)c2C1=O" is ___
> 100 µM
